# system: T1, CD27 expressed on the cell surface of HT1080_CD27 cells (human, UniProt P26842 20-260); note: test concentration or dose not given here
# T1 sequence (looked up): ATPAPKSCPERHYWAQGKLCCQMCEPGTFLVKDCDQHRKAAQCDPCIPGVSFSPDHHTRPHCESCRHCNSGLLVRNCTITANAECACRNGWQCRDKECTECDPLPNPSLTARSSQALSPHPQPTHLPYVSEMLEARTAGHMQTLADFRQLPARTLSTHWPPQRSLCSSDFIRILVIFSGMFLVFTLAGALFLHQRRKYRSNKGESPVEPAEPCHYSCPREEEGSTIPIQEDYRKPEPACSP
# assay: cell-based or functional assay
measurement.type: Functional assay IL-8 (abs. corr.)
State just the number; it will be interpreted in abs. corr..

P018.S.05.A.E03 (antibody, V domains shown, V regions on human Ig constant parts; also called AB27_89) VH: QSLEESGGRLVTPGGSLTLTCTVSGIDLSSYAMGWVRQAPGKGLEWIGYITYGGSTYYANWVNGRFTISKTSTMVDLKMTSLTAADTATYFCARLRAPYYYRIYFNLWGPGTLVTVSS VL: ALVMTQTPSSVEAAVGGTVTIKCQASQNIISALAWYQQKPGQPPKLLIYDASNLESGVPSRFKGSGSGTDFTLTISDLESADAATYYCQGAYDTNINDFGGGTEVVVK ... 0.208
P018.S.07.A.D05 (antibody, V domains shown, V regions on human Ig constant parts; also called AB27_124) VH: QSLEESGGDLVKPEGSLTLTCTASGFSFSSSYWICWVRQAPGKGLEWIGCMITGRGNTYYATWAKGRFTISKTSSTTVTLQMTSLTAADTATYFCARGPGGADPINLWGPGTLVTVSS VL: DVVMTQTPASVSEPVGGTVTIKCQASQNIYNNLAWYQQKPGQPPKLLIYLASTLASGVPSRFEGSGSGTEFTLTISGVQSDDAATYYCQSTYDGSSYVPNAFGGGTEVVVK ... -0.032
P018.S.09.A.G06 (antibody, V domains shown, V regions on human Ig constant parts; also called AB27_159) VH: QSVEESGGRLVTPGTPLTLTCTASGFSLSNYHMSWVRQAPGKGLEWIGIIYAGSDSTWYASWAKGRFTISKTSTTVDLKITSPTTEDTATYFCARQPGGGASDTQLDLWGQGTLVTVSS VL: AAVLTQTASPVSAAVGGTVTINCQSSQNIFDNNQLSWFQHKSGQSPKLLIYRASTLASGVPSRFKGSGSGTQFTLTISDVQSDDAATYYCLGGYSSSSDTVFGGGTEVVVK ... 0.467
P018.S.01.A.A06 (antibody, V domains shown, V regions on human Ig constant parts; also called AB27_3) VH: QSVEESGGRLVTPGTPLTLTCTVSGIDLSTYAMSWVRQAPGKGLEWIGIIYGSGYTYYASWAKGRATISKTSSTTVDLKITSPTTEDTATYFCASGYGISSGNFLHFNLWGQGTLVTVSS VL: AYDMTQTPASVEVAVGGTVTIKCQASESIYFNLAWYQQKPGQRPKLLIYRASTLASGVSSRFKGSGSGTQFTLTISGVESADAATYYCQQGYDSSHIDNAFGGGTEVVVT ... 0.566

Please turn your attention to the following entry.
Lookup: State the recorded Functional assay IL-8 for this entry: P018.S.06.A.A05 (antibody, V domains shown, V regions on human Ig constant parts; also called AB27_97) VH: QSLEESGGRLVTPGTPLTLTCTVSGIDLSSYAMGWVRQAPGKGLELIGLIYASNRTHYATWAKGRFTISKSSTTVDLKATSLTTEDTATYFCGRYGRGSGGYYYGMDLWGPGTLVTVSS VL: DVVMTQTPASVEAAVGGTVTIKCQASQSGDNYLSWYQQKSGQPPKLLIYLASTLASGVPSRFRGSRSGTEYTLTISDLESADAATYYCQNYCAGSGVCVGVAFGGGTEVVVK
Found: 0.433
